# test-target: DPP1 in HL-60 cells (Homo sapiens (Human), UniProt P53634)
# Sequence (P53634 25-134): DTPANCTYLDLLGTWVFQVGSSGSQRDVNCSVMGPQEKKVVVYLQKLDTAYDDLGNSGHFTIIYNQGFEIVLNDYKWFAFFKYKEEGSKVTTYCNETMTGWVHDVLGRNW
# Sequence (P53634 231-394): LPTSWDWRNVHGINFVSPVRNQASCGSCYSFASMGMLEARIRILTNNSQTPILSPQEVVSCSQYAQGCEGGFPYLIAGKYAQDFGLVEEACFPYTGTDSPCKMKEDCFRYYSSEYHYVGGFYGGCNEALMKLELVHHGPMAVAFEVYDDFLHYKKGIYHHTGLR
# Sequence (P53634 395-463): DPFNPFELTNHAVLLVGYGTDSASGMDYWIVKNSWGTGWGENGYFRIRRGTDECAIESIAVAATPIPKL
# assay-info: DPP1 Cell IC50 Assay (HL-60 cells, H-Gly-Phe-AFC substrate)
# Assay type: cell-based
# condition-parameters: Table 16, read-out: Cell Assay
pIC50: −log10 of the molar value.
Threshold check on pIC50: at or above 8 gives class 1, strictly below gives class 0.

Worked examples follow.
- compound: "Cn1c(=O)oc2ccc(-c3ccc(C[C@@H](C#N)NC(=O)[C@@H]4C[C@H]5C[C@H]5N4)cc3)cc21 [drawing 1151]"
  label-value: "class 1"
- compound: "Cn1c(=O)oc2ccc(-c3ccc(C[C@@H](C#N)NC(=O)[C@@H]4C[C@@H]5COC[C@@H]5N4)c(F)c3)cc21"
  label-value: "class 0"
- compound: "N#Cc1ccc(-c2ccc(C[C@@H](C#N)NC(=O)[C@@H]3C[C@@H]4COC[C@@H]4N3)cc2)cc1"
  label-value: "class 0"
- compound: "Cn1c(=O)oc2ccc(-c3ccc(C[C@@H](C#N)NC(=O)[C@@H]4C[C@@H]5C[C@@H]5N4)cc3)cc21"
  label-value: "class 0"
- compound: "Cn1c(=O)oc2ccc(-c3ccc(C[C@@H](C#N)NC(=O)[C@@H]4COCCN4)cc3)cc21"
  label-value: "class 0"
- compound: "Cn1c(=O)oc2ccc(-c3ccc(CC(C#N)NC(=O)C4CNC4)c(F)c3)cc21 (centres unmarked)"
  label-value: "class 0"

Note: attention shifts to another entry.
Determine whether this compound has pIC50 no lower than 8: Cn1c(=O)oc2ccc(-c3ccc(C[C@@H](C#N)NC(=O)[C@@H]4C[C@@H]5CCC[C@@H]5N4)c(F)c3)cc21 [drawing 1227]
class 1

* * *

# test-target: Recombinant human DPP1 enzyme (Homo sapiens (Human))
# assay-info: Human DPP1 Enzyme IC50 Assay
# Assay type: biochemical
# condition-parameters: human DPP1 enzyme; Table 16; read-out: IC50, nM; Human
# Procedure: Recombinant human DPP1 enzyme (R&D Systems; Minneapolis, MN) was first proteolytically processed into its mature form using recombinant human cathepsin L (R&D Systems) in a buffer consisting of 20 mM citric acid pH 4.5, 150 mM NaCl, 1 mM EDTA and 10 mM DTT. […] Substrate cleavage was measured for 90 minutes at 37° C., with fluorescence at Excitation/Emission 350/450 nm measured every 5 minutes. […]
reported-metric: log10 IC50 (log10 of the value in nM)
Response schema: value (number) is log10 of IC50 in units of nM.

Worked set:
- compound: "Cn1c(=O)oc2ccc(-c3ccc(C[C@@H](C#N)NC(=O)C4CNCCS(=O)(=O)C4)cc3)cc21 (some centres unmarked)"
  test-target: "Recombinant human DPP1 enzyme (Homo sapiens (Human))"
  log10 IC50: 3.68
- compound: "Cn1c(=O)oc2ccc(-c3ccc(CC(C#N)NC(=O)C4CNC4)cc3)cc21 (centres unmarked)"
  test-target: "Recombinant human DPP1 enzyme (Homo sapiens (Human))"
  log10 IC50: 3.22
- compound: "N#Cc1ccc(-c2ccc(C[C@@H](C#N)NC(=O)[C@@H]3C[C@H]4COC[C@H]4N3)cc2)cc1 [drawing 1153]"
  test-target: "Recombinant human DPP1 enzyme (Homo sapiens (Human))"
  log10 IC50: 2.43

Per the records, this compound ( Cn1c(=O)oc2ccc(-c3ccc(C[C@@H](C#N)NC(=O)C4(C)CNCCO4)cc3)cc21 (some centres unmarked) ) has log10 IC50 equal to 3.34

GET /value?item= Cn1c(=O)oc2ccc(-c3ccc(CC(C#N)NC(=O)[C@@]4(C)CNCCO4)cc3)cc21 (some centres unmarked) &field=log10 IC50 returns 3.02

The compound identified as Cn1c(=O)oc2ccc(-c3ccc(C[C@@H](C#N)NC(=O)C4CNCC45CCC5)cc3)cc21 (some centres unmarked) [drawing 1229] registered its log10 IC50 at 3.09

Cn1c(=O)oc2ccc(-c3ccc(C[C@@H](C#N)NC(=O)[C@@H]4C[C@@H]5COC[C@@H]5N4)c(F)c3)cc21 yielded log10 IC50 of 2.25
